# System: MCF7 (Mammary Gland, Adenocarcinoma)
# protocol-details: Cell viability analysis (WST-1), MCF7
# Type: cell-based
# measurement-parameters: Homo sapiens, MCF7, 72 h, Table 3, drug 10 μM, WST-1, OD450 nm, read-out: survival rate (viability) of cancer cells, MCF7
Where a name gives a salt, the structure may show the parent alone.
Answer each item with its documented viability at 10 µM.
Answers are plain numbers, in %.

Return reported viability at 10 µM values for all items listed beneath this line.
1. CCCNCC(O)COc1ccccc1C(=O)CCc1ccccc1 (stereo not shown) [Propafenone (Rytmonorm), Propafenone]
2. CC(=O)NS(=O)(=O)c1ccc(N)cc1 [sulfacetamide sodium]

Found:
[120, 110]

List the reported viability at 10 µM of each compound below.
1. Cc1[nH]c(=O)c(C#N)cc1-c1ccncc1
2. Cc1c(OCC(F)(F)F)ccnc1C[S@@+]([O-])c1nc2ccccc2[nH]1
3. C#CCN[C@@H]1CCc2ccccc21 [Rasagiline mesylate]
4. CO[C@@H]1[C@@H](OC(N)=O)[C@@H](O)[C@H](Oc2ccc3c(O)c(NC(=O)c4ccc(O)c(CC=C(C)C)c4)c(=O)oc3c2C)OC1(C)C [Novobiocin sodium (Albamycin), Novobiocin sodium]
5. CCC(C)(C)C(=O)O[C@H]1C[C@@H](C)C=C2C=C[C@H](C)[C@H](CC[C@@H]3C[C@@H](O)CC(=O)O3)[C@H]21 [Simvastatin (Zocor), Simvastatin]

Found:
98.5
72.1
88.3
109
81.5
